Hi there, I'd appreciate the recorded IC50 for every entry that follows.
- STUDY_SYSTEM: Hpk1 (Homo sapiens, UniProt Q92918)
- Sequence (Q92918 whole entry): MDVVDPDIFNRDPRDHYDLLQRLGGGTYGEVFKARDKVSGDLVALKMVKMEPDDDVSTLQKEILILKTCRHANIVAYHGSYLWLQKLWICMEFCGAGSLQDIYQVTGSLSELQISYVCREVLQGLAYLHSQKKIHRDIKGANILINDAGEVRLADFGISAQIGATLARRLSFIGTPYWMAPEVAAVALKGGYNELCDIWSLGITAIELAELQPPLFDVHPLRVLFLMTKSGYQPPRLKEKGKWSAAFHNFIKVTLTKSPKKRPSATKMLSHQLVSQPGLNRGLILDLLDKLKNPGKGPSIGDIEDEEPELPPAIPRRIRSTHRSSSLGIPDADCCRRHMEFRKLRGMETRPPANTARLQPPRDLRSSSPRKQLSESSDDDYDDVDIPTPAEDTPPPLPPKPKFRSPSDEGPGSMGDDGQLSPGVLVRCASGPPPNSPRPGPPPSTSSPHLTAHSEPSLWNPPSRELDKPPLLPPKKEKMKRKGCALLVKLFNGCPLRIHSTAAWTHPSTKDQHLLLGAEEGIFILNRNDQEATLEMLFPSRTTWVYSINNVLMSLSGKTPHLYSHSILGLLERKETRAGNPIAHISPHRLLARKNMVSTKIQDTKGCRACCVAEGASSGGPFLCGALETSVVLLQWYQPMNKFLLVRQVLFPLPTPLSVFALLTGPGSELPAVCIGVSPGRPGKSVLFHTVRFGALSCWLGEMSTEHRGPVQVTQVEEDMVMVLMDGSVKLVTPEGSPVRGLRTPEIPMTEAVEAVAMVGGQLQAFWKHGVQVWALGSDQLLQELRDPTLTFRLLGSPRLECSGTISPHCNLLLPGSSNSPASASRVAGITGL
- ASSAY_INFO: SLP76 phosphorylation assay (SLP76 pS376 in lysates of HEK293 cells engineered to express Hpk1 and SLP76)
- Format: cell-based
- ASSAY_CONTEXT: HEK293 cells expressing Hpk1 and SLP76, 4 hours incubation; read-out: pSLP76 (HEK293) (pIC50) (converted)

STRUCTURE_AS_SMILES: N#Cc1ccc(-c2cc(-c3ccc(C4CCOCC4)c([C@@H]4CCCN4)c3)cnc2N)cc1
REPORTED_ENDPOINT: IC50
READING: 692 nM
--
STRUCTURE_AS_SMILES: Nc1ncc(-c2ccc(C3CCOCC3)c([C@@H]3CCCN3)c2)cc1C1CCS(=O)(=O)CC1
REPORTED_ENDPOINT: IC50
READING: > 10000 nM
--
STRUCTURE_AS_SMILES: CC(C)n1cc(-c2cc(-c3ccc(C4CCOCC4)c([C@@H]4CCCN4)c3)cnc2N)cn1
REPORTED_ENDPOINT: IC50
READING: 339 nM

// moving on: another record for IC50
The recorded IC50 for `CS(=O)(=O)n1cc(-c2cc(-c3ccc(C4CCOCC4)c([C@@H]4CCCN4)c3)cnc2N)cn1` is 977 nM
